procedure text: binders of probe aFST on microarray, primary screen, stem cell growth factor project, biochemical, small-molecule microarray, fluorescence 635/667 (AID 1086);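 also: score merges 667 nm fluorescence with signal-to-noise of each printed compound spot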
condition summary: higher = more signal
Kindly supply the reported composite z-score values for the records listed here.
Give bare numbers.

# compound, readout value
measured = [
    ("CC(=O)NCCCC[C@@H]1NC(=O)[C@@H]2C[C@H](C(=O)NCCCCCCN)[C@H](c3cccc(OCCO)c3)N2C1=O", -0.0064),
]

Can you give me composite z-score for all of these, one by one?
1. COC(=O)[C@@]1(Cc2ccccc2)[C@H]2c3cc(C(=O)N4CCCC4)n(CCSCCO)c3C[C@H]2CN1C(=O)c1ccccc1
2. C=C(/C(=C/C[C@H](OC(=O)c1ccncc1)c1cccc(OCCO)c1)c1cnc2ccccc2c1)C(C)C
3. CN1C(=O)C2C=CC(C(O)c3ccc(I)cc3)N(Nc3ccccc3)C2C1=O (configuration not stated)
4. CC(C)OC(=O)CC(=O)CC(O)c1ccc([N+](=O)[O-])cc1 (configuration not stated)
5. CO[C@H]1O[C@H](CO)[C@@H](OC(=O)Nc2ccc(C#N)cc2)[C@@H]2OC(=O)[C@H](Cc3cccc(Br)c3)C/C=C/C[C@@H](Cc3cccc(Br)c3)C(=O)O[C@@H]12

Output:
0.894
0.157
0.942
0.0731
0.572

Input: Returns the measured composite z-score for the input compound. Input: CC(C)C[C@@H]1NC(=O)CNC(=O)[C@@]23C(=O)N[C@@H](Cc4ccccc4)C2[C@H](C)[C@@]2(C)O[C@H]2C3/C=C/C/C=C\CNC1=O (some centres not stated)
Output: 0.0427

###

procedure text: basal S. cerevisiae growth modulation, no modifier, primary screen, OD600, strain BY4716, 24 h, basal condition (AID 1173)
condition summary: OD600, 24 h, higher = more signal, called active from +8 up or from −8 down
observed property: z-score
Give bare numbers.

Field: example entries. Status: answers known.
# structure, readout value
measured = [
    ("CN1C(=O)[C@@H]2[C@@H](CC(COc3ccccc3)=C([C@H](O)CCc3ccccc3)[C@@H]2CO)C1=O", -3.31),
    ("CCOC(=O)C1=C[C@@H](C(C)(C)C)N(S(=O)(=O)c2ccc(C)cc2)[C@H]1c1ccccc1", 1.53),
]

Please report z-score for every entry that follows.
1. [N-]=[N+]=NC[C@H](Cc1ccccc1)NC(=O)c1ccccc1
2. COCCOC(=O)N1C(=O)[C@@]2(c3cc(C#CCC(C(=O)OC)C(=O)OC)ccc31)[C@H](c1ccc(O)cc1)N1[C@H](c3ccccc3)[C@H](c3ccccc3)OC(=O)[C@H]1[C@@H]2C(=O)NC[C@H](O)c1ccccc1

Output:
[-3.7, -0.149]

###

System: XIP peptide (Xip251-270) binding
procedure text: small-molecule binders of XIP peptide, primary screen, biochemical, small-molecule microarray, fluorescence 635/667 nm, 0.1 µg/mL protein (AID 1182)
condition summary: fluorescent protein binding, 635 nm, higher = more signal, called active from +8 up or from −8 down
Calls of active or inactive are those of the source.
I'd appreciate it if you could supply composite z-score values for the items below.

Some solved entries appear below for comparison.
# molecule, readout value
measured = [
    ("CCc1cccc(NC(=O)O[C@H]2[C@H](OC(=O)Nc3ccccc3)[C@H](OC(=O)Nc3ccccc3)[C@@H](OC)O[C@@H]2CO)c1", "1.54 (inactive)"),
    ("O=C1C2C=CC(C(O)c3cc(C(F)(F)F)cc(C(F)(F)F)c3)N(Nc3ccccc3F)C2C(=O)N1c1ccccc1 (stereo not drawn)", "1.22 (inactive)"),
]

Field: next molecule
Input: Dear colleague, I am looking for the recorded composite z-score of the following molecule: COCCOC(=O)N1C(=O)[C@@]2(c3cc(C#CCCO)ccc31)[C@H](c1ccccc1OCCO)N1[C@H](c3ccccc3)[C@H](c3ccccc3)OC(=O)[C@H]1[C@@H]2C(=O)N1CCCCCCC1
Output: 0.783 (inactive)

###

procedure text: modulators of S6 phosphorylation in cells, primary screen, cell-based, A549, cytoblot, luminescence, serum-stimulated (AID 1158);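 also: serum-stimulated A549 lung adenocarcinoma cells; signal is phosphorylated S6 detected by cytoblot immunostaining with HRP secondary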
condition summary: A549 phospho-S6 cytoblot, 5 h, higher = more signal
Rule: z-score under -0.5 gives no, otherwise yes.

# compound, class label
rows = [
    ("COC(=O)[C@@]1(Cc2ccc(OC)cc2)[C@H]2c3cc(C(=O)N4CCCC4)n(Cc4ccc(S(C)(=O)=O)cc4)c3C[C@H]2CN1C(=O)c1ccccc1", "no"),
    ("COc1ccc([Si](C)(C)[C@@H]2[C@@H](CCn3cc([C@H](O)c4ccccc4)nn3)O[C@]3(C(=O)N(Cc4cccc(N5C(=O)c6cccc7cccc5c67)c4)c4ccccc43)[C@H]2C)cc1", "yes"),
    ("O=C(NCCN1CCOCC1)[C@@H]1c2ccccc2C(=O)N(Cc2ccccc2)[C@H]1c1ccc(CO)cc1", "yes"),
]

Input: Say whether C=C[C@@H](OC)[C@H](OC(=O)Nc1ccc(SC)cc1)c1ccc(OCCO)cc1 shows z-score of -0.5 or more.
Output: yes

###

procedure text: small-molecule microarray binders of probe aEGFR, primary screen, biochemical, biotinylated probe, 635/667 nm fluorescence (AID 1097);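 also: probe is a biotinylated anti-EGFR antibody binding compounds printed on slides; score combines fluorescence near 667 nm and signal to noise of each spot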
condition summary: higher = more signal
observed property: composite z-score
Give bare numbers.

Below are worked cases with known answers.
# molecule, composite z-score
measured = [
    ("CCCCC(=O)N(CCN1CCOCC1)[C@@H]1CC(C(=O)NCCO)=C[C@H](Oc2c(I)cc(CO)cc2OC)[C@H]1O", -0.152),
    ("O=C1OCC=C[C@H]2OC34C=CCN(c5ccc6ccccc6c5)C(=O)[C@H]3N(CCCCCO)C(=O)[C@@H]4[C@@H]12 (some centres not stated)", -0.177),
    ("COCCOC(=O)N1C(=O)[C@@]2(c3cc(C#CCC(C(=O)OC)C(=O)OC)ccc31)[C@H](c1ccc(OCCO)cc1)N1[C@H](c3ccccc3)[C@H](c3ccccc3)OC(=O)[C@H]1[C@@H]2C(=O)Nc1nc2ccccc2s1", -0.04),
    ("CN1C(=O)C2C(C1=O)C1C=C(CCCO)C2C(C2CC2)N1Cc1cc2c(cc1Br)OCO2 (configuration not stated)", 0.0185),
    ("CCOC(=O)C[C@H]1[C@H](OC(=O)c2ccccc2-c2ccccc2)[C@@H](NC(=O)c2ccc3ccccc3n2)c2cc(OCCCO)ccc2N1C(=O)c1ccccc1", -0.0084),
]

Quick request: composite z-score for each listed item, please.
1. O=C1C2C=CC(C(O)c3ccc4c(c3)OCO4)N(Nc3ccccc3)C2C(=O)N1c1ccccc1 (configuration not stated)
2. C=CCNC(=O)[C@H]1[C@@H]2C(=O)O[C@@H](c3ccccc3)[C@@H](c3ccccc3)N2[C@@H](c2ccc(OCCO)cc2)[C@]12C(=O)N(C(=O)OCCOC)c1ccc(C#Cc3ccc(OC)cc3)cc12
3. COC(=O)[C@@]1(Cc2ccc(F)cc2)[C@H]2c3cc(C(=O)N(C)C)n(Cc4c(CO)[nH]cc(C)c4=O)c3C[C@H]2CN1C(=O)c1ccccc1
4. [N-]=[N+]=Nc1ccccc1C[C@@]1(C(=O)O)N=C(c2ccc(OCCCO)cc2)O[C@@H]1c1ccccc1N=[N+]=[N-]
5. O=C1C2C=CC(C(O)C=Cc3ccc([N+](=O)[O-])cc3)N(Nc3ccccc3)C2C(=O)N1c1ccccc1 (configuration not stated)

Output:
0.11
-0.0164
0.297
0.0998
-0.0238

Go through the list and state composite z-score for each entry.
1. COCCCNC(=O)[C@@]1(c2ccc([N+](=O)[O-])cc2)CC(=O)N(C(C)C)[C@@H]1c1ccc(CO)cc1
2. O=C1C[C@@](C(=O)NCC(F)(F)F)(c2ccc([N+](=O)[O-])cc2)[C@@H](c2ccc(CO)cc2)N1CC12CC3CC(CC(C3)C1)C2
3. COc1cc(C(O)C2C=CC3C(=O)N(Cc4ccccc4)C(=O)C3N2n2cnnc2)cc(OC)c1OC (configuration not stated)
4. CCOC(=O)C1=C[C@@H](C(C)(C)C)N(S(=O)(=O)c2ccc(C)cc2)[C@H]1c1ccccc1
5. [N-]=[N+]=Nc1ccccc1[C@@H]1OC(c2ccc(OCCCO)cc2)=N[C@]1(Cc1ccccc1)C(=O)NCc1ccccc1
6. C=C(C)C1CCC(C(O)C2C=CC3C(=O)N(C)C(=O)C3N2Nc2cc(OC)c(OC)c(OC)c2)CC1 (configuration not stated)
7. C[C@@H]1ON(c2ccc(I)cc2)[C@H](c2ccc(OC(=O)OC(C)(C)C)cc2)[C@H]1C(=O)N1C(=O)OC[C@H]1Cc1ccccc1

Output:
1. -0.071
2. 0.751
3. 0.298
4. 0.124
5. 0.454
6. 0.0763
7. -0.0351

###

procedure text: P. aeruginosa biofilm formation inhibitors, primary screen, strain PAO1, LB-PBS medium, absorbance 600 nm (AID 1176)
condition summary: P. aeruginosa PAO1 growth/biofilm, A600, 12 h; higher = more signal
Assign a class from recorded z-score; defined classes: low-valued: < -0.03; mid-valued: ≥ -0.03 and < 0.5; high-valued: ≥ 0.5

# molecule, class label
data = [
    ("C=CCC(OC(C)=O)[C@@H]1[C@@H](N(Cc2ccc(-c3ccccc3)cc2)C(=O)Cc2ccc(F)cc2)c2cc(OCCCO)ccc2N1C(=O)Cc1ccc2ccccc2c1 (stereo partly drawn)", "mid-valued"),
    ("COC(=O)[C@@]1(Cc2ccc(OC)cc2)[C@H]2c3cc(C(=O)N4CCCC4)n(Cc4cc(C)n(C)n4)c3C[C@H]2CN1C(=O)c1ccccc1", "low-valued"),
    ("CCOC(=O)C=Cc1ccccc1O", "mid-valued"),
]

Input: For CC(C)CNC(=O)[C@@H]1c2ccccc2C(=O)N(C2CCCCC2)[C@H]1c1ccc(CO)cc1 , which z-score bin applies?
Output: mid-valued

Input: Note: place this molecule into its band. Item: COCC(=C=CC[C@@H](O)c1cccc(OCCO)c1)CCO
Output: low-valued

Input: Quick check: band for COc1cc2c(cc1O)C(c1ccc(CN3CCCC3)cc1)N(C)CC2 (stereo not drawn)
Output: low-valued

Input: Class label required: COCC(=C=CC[C@H](O)c1cccc(OCCO)c1)C[C@H](O)COCc1ccccc1
Output: high-valued

Input: GET /class?item= CN1C(=O)C2C=CC(C(O)c3ccc(I)cc3)N(Nc3ccccc3)C2C1=O (stereo not drawn)
Output: high-valued

Input: Given C=CCNC(=O)[C@@H]1[C@H]2C(=O)O[C@H](c3ccccc3)[C@H](c3ccccc3)N2[C@H](c2ccc(OCCO)cc2)[C@@]12C(=O)N(C(=O)OCCOC)c1ccc(C#CCCO)cc12 , name the class its z-score places it in.
Output: high-valued

Input: For CC(C)C(=C=CC[C@@H](O)c1cccc(OCCO)c1)C[C@@H](O)c1ccccn1 , which z-score bin applies?
Output: low-valued

Input: The entry to classify is CC(C)C[C@@H]1NC(=O)[C@H]2C[C@@H](C(=O)NCCCCCN)[C@@H](c3cccc(OCCO)c3)N2C1=O ; which class holds it?
Output: low-valued

Input: Hi there! Could you help me figure out the category for Nc1cc(Br)ccc1C(=O)O please?
Output: low-valued

Hey, just so you know, these numbers are from PubChem BioAssay.
